Origin of measurements: ChEMBL document CHEMBL5108036

system: Bacillus subtilis; assay: Antibacterial activity against Bacillus subtilis 168 incubated for 48 hrs and measured by broth microdilution assay; type: functional
Endpoint Name: MIC (µg/mL)
Give the number; µg/mL is assumed, so skip it.

These recorded examples may help you get a feel for the data.
1. NCCCN1C(=O)N(CCCN)C(=O)C(Cc2ccc(Br)c(Cl)c2)(Cc2ccc(Br)c(Cl)c2)C1=O.O=C(O)C(F)(F)F.O=C(O)C(F)(F)F; 4
2. CC(C)(C)c1ccc(CC2(Cc3cc(Br)cc(Br)c3)C(=O)N(CCCNC(=N)N)C(=O)N(CCCNC(=N)N)C2=O)cc1.O=C(O)C(F)(F)F.O=C(O)C(F)(F)F (configuration not stated); 1

Kindly note the recorded MIC for `NCCCCN1C(=O)N(CCCCN)C(=O)C(Cc2cc(Br)cc(Br)c2)(Cc2cc(C(F)(F)F)cc(C(F)(F)F)c2)C1=O.O=C(O)C(F)(F)F.O=C(O)C(F)(F)F` , which is 2

Kindly note the recorded MIC for `N=C(N)NCCCCCN1C(=O)N(CCCCCNC(=N)N)C(=O)C(Cc2cc(Br)cc(Br)c2)(Cc2cc(Br)cc(Br)c2)C1=O.O=C(O)C(F)(F)F.O=C(O)C(F)(F)F` , which is 4

Kindly note the recorded MIC for `NCCCCN1C(=O)N(CCCCN)C(=O)C(Cc2ccc3cc(Br)ccc3n2)(Cc2ccc3cc(Br)ccc3n2)C1=O.O=C(O)C(F)(F)F.O=C(O)C(F)(F)F` , which is 4

Kindly note the recorded MIC for `CCCCCCC1(CCCCCC)C(=O)N(CCCCNC(=N)N)C(=O)N(CCCCNC(=N)N)C1=O.O=C(O)C(F)(F)F.O=C(O)C(F)(F)F` , which is 2

Kindly note the recorded MIC for `N=C(N)NCCCCN1C(=O)N(CCCCNC(=N)N)C(=O)C(Cc2ccc(Br)c3ccccc23)(Cc2ccc(Br)c3ccccc23)C1=O.O=C(O)C(F)(F)F.O=C(O)C(F)(F)F` , which is 4

###

tested on: Staphylococcus aureus; assay: Antibacterial activity against Staphylococcus aureus ATCC 9144 incubated for 48 hrs and measured by broth microdilution assay; assay type: functional
Endpoint Name: MIC
Answers without a unit are incomplete; give the number and then its unit.

1) NCCN1C(=O)N(CCN)C(=O)C(Cc2cc(Br)cc(Br)c2)(Cc2cc(Br)cc(Br)c2)C1=O.O=C(O)C(F)(F)F.O=C(O)C(F)(F)F; 4 µg/mL
2) N[C@H]1CC[C@@H](N2C(=O)N([C@H]3CC[C@@H](N)CC3)C(=O)C(Cc3cc(Br)cc(Br)c3)(Cc3cc(Br)cc(Br)c3)C2=O)CC1.O=C(O)C(F)(F)F.O=C(O)C(F)(F)F; 4 µg/mL
3) NCCCN1C(=O)N(CCCN)C(=O)C(Cc2cc(C(F)(F)F)cc(C(F)(F)F)c2)(Cc2cc(C(F)(F)F)cc(C(F)(F)F)c2)C1=O.O=C(O)C(F)(F)F.O=C(O)C(F)(F)F; 8 µg/mL

The recorded MIC with Staphylococcus aureus for `NCCCCN1C(=O)N(CCCCN)C(=O)C(Cc2cc(Br)cc(Br)c2)(Cc2ccc3ccccc3n2)C1=O.O=C(O)C(F)(F)F.O=C(O)C(F)(F)F` was 32 µg/mL

The recorded MIC with Staphylococcus aureus for `NCCCCN1C(=O)N(CCCCN)C(=O)C(Cc2cc(Br)cc(Br)c2)(Cc2cc(C(F)(F)F)cc(C(F)(F)F)c2)C1=O.O=C(O)C(F)(F)F.O=C(O)C(F)(F)F` was 8 µg/mL

###

assay: Hemolytic activity in human RBC measured after 1 hr by microplate reader method; assay type: toxicity, cell-based, Erythrocyte; details: human, human red blood cells (erythrocytes)
Endpoint Name: EC50 at 1 h

Kindly note the recorded EC50 at 1 h for `NCCCN1C(=O)N(CCCN)C(=O)C(Cc2ccc(C(F)(F)F)cc2)(Cc2ccc(C(F)(F)F)cc2)C1=O.O=C(O)C(F)(F)F.O=C(O)C(F)(F)F` , which is > 393 µg/mL

Kindly note the recorded EC50 at 1 h for `NCCCN1C(=O)N(CCCN)C(=O)C(Cc2ccc3cc(Br)ccc3n2)(Cc2ccc3cc(Br)ccc3n2)C1=O.O=C(O)C(F)(F)F.O=C(O)C(F)(F)F` , which is > 455 µg/mL

Kindly note the recorded EC50 at 1 h for N=C(N)NCCCN1C(=O)N(CCCNC(=N)N)C(=O)C(Cc2ccc(C(F)(F)F)cc2)(Cc2cc(Br)cc(Br)c2)C1=O.O=C(O)C(F)(F)F.O=C(O)C(F)(F)F (centres undefined) , which is > 480 µg/mL

Kindly note the recorded EC50 at 1 h for `N=C(N)NCCCN1C(=O)N(CCCNC(=N)N)C(=O)C(Cc2ccc3cc(Br)ccc3n2)(Cc2ccc3cc(Br)ccc3n2)C1=O.O=C(O)C(F)(F)F.O=C(O)C(F)(F)F` , which is > 497 µg/mL

###

tested on: Staphylococcus aureus; experiment: Antibacterial activity against Staphylococcus aureus ATCC 9144 incubated for 48 hrs and measured by broth microdilution assay; type: functional
Endpoint Name: MIC (µg/mL)
Give the number; µg/mL is assumed, so skip it.

1. NCCCN1C(=O)N(CCCN)C(=O)C(Cc2ccc(C(F)(F)F)cc2)(Cc2cc(Br)cc(Br)c2)C1=O.O=C(O)C(F)(F)F.O=C(O)C(F)(F)F; 32

Kindly note the recorded MIC for `NCCCCN1C(=O)N(CCCCN)C(=O)C(Cc2ccc3cc(Br)ccc3n2)(Cc2ccc3cc(Br)ccc3n2)C1=O.O=C(O)C(F)(F)F.O=C(O)C(F)(F)F` , which is 16

Kindly note the recorded MIC for `NCCCN1C(=O)N(CCCN)C(=O)C(Cc2ccc(Br)c(Cl)c2)(Cc2ccc(Br)c(Cl)c2)C1=O.O=C(O)C(F)(F)F.O=C(O)C(F)(F)F` , which is 8

Kindly note the recorded MIC for `CN(C)CCCCN1C(=O)N(CCCCN(C)C)C(=O)C(Cc2cc(Br)cc(Br)c2)(Cc2cc(Br)cc(Br)c2)C1=O.O=C(O)C(F)(F)F.O=C(O)C(F)(F)F` , which is 8

Kindly note the recorded MIC for `CC(C)(C)c1ccc(CC2(Cc3cc(Br)cc(Br)c3)C(=O)N(CCCCN)C(=O)N(CCCCN)C2=O)cc1.O=C(O)C(F)(F)F.O=C(O)C(F)(F)F` , which is 4

Kindly note the recorded MIC for `N=C(N)NCCCCCCN1C(=O)N(CCCCCCNC(=N)N)C(=O)C(Cc2cc(Br)cc(Br)c2)(Cc2cc(Br)cc(Br)c2)C1=O.O=C(O)C(F)(F)F.O=C(O)C(F)(F)F` , which is 4

###

The reader will find reported EC50 at 1 h values listed item by item below.
assay: Hemolytic activity in human RBC measured after 1 hr by microplate reader method; assay type: toxicity, cell-based, Erythrocyte; conditions: human, human red blood cells (erythrocytes)

1. N=C(N)NCCCCN1C(=O)N(CCCCNC(=N)N)C(=O)C(Cc2ccc3ccccc3n2)(Cc2ccc3ccccc3n2)C1=O.O=C(O)C(F)(F)F.O=C(O)C(F)(F)F; > 432 µg/mL
2. CCCCCCC1(CCCCCC)C(=O)N(CCCCN)C(=O)N(CCCCN)C1=O.O=C(O)C(F)(F)F.O=C(O)C(F)(F)F; > 333 µg/mL

Kindly note the recorded EC50 at 1 h for `N=C(N)NCCCN1C(=O)N(CCCNC(=N)N)C(=O)C(Cc2ccc(C(F)(F)F)cc2)(Cc2ccc(C(F)(F)F)cc2)C1=O.O=C(O)C(F)(F)F.O=C(O)C(F)(F)F` , which is > 435 µg/mL

###

assay: Hemolytic activity in human RBC measured after 1 hr by microplate reader method; type: toxicity, cell-based, Erythrocyte; settings: human, human red blood cells (erythrocytes)
Endpoint Name: EC50 at 1 h (µg/mL)
Give the number; µg/mL is assumed, so skip it.

1. N[C@H]1C[C@@H](N2C(=O)N([C@H]3C[C@@H](N)C3)C(=O)C(Cc3cc(Br)cc(Br)c3)(Cc3cc(Br)cc(Br)c3)C2=O)C1.O=C(O)C(F)(F)F.O=C(O)C(F)(F)F; 50
2. N=C(N)NCCCN1C(=O)N(CCCNC(=N)N)C(=O)C(Cc2cc(Br)cc(Br)c2)(Cc2cc(Br)cc(Br)c2)C1=O.O=C(O)C(F)(F)F.O=C(O)C(F)(F)F; 187

Then there is this molecule:
Kindly note the recorded EC50 at 1 h for `NCCCCCCN1C(=O)N(CCCCCCN)C(=O)C(Cc2cc(Br)cc(Br)c2)(Cc2cc(Br)cc(Br)c2)C1=O.O=C(O)C(F)(F)F.O=C(O)C(F)(F)F` , which is 30

###

system: Bacillus subtilis; test: Antibacterial activity against Bacillus subtilis 168 incubated for 48 hrs and measured by broth microdilution assay; type: functional
The reader will find reported MIC values listed item by item below.
Give the number; µg/mL is assumed, so skip it.

These recorded examples may help you get a feel for the data.
1) N=C(N)N[C@H]1C[C@H](N2C(=O)N([C@H]3C[C@H](NC(=N)N)C3)C(=O)C(Cc3cc(Br)cc(Br)c3)(Cc3cc(Br)cc(Br)c3)C2=O)C1.O=C(O)C(F)(F)F.O=C(O)C(F)(F)F; 4
2) N=C(N)NCCCN1C(=O)N(CCCNC(=N)N)C(=O)C(Cc2ccc(Br)c3ccccc23)(Cc2ccc(Br)c3ccccc23)C1=O.O=C(O)C(F)(F)F.O=C(O)C(F)(F)F; 2
3) CC(C)(C)c1ccc(CC2(Cc3cc(Br)cc(Br)c3)C(=O)N(CCCN)C(=O)N(CCCN)C2=O)cc1.O=C(O)C(F)(F)F.O=C(O)C(F)(F)F; 2

Then there is this compound:
Kindly note the recorded MIC for `O=C([O-])C(F)(F)F.O=C([O-])C(F)(F)F.O=C1N(CCCC[n+]2ccccc2)C(=O)C(Cc2cc(Br)cc(Br)c2)(Cc2cc(Br)cc(Br)c2)C(=O)N1CCCC[n+]1ccccc1` , which is 4
